Provide the recorded log10 solubility kinetic for the entries that follow.
# measurementParameters: buffer; pH 7.4; 200.0 µM
All values: base-10 log of solubility kinetic in µg/mL.

Query: Value lookup for log10 solubility kinetic; key = CN1C2=C(C(=O)CC(C)(C)C2)C(c2cccs2)C2=C1CC(C)(C)CC2=O
Reply: 1.51

Query: Same thing, different compound: O=C(Cc1cc2ccccc2o1)NCc1ccc(F)cc1
Reply: 0.70

Query: Same thing, different compound: Cc1sc2ncnc(SCC(=O)N3CCCC(C(F)(F)F)C3)c2c1C (stereo unspecified)
Reply: 0.43

Query: Same thing, different compound: CC(=O)c1ccc(OCC(=O)Nc2ccc3nc(C)sc3c2)cc1
Reply: 0.15

Query: Same thing, different compound: Cc1cc(C(=O)Nc2ccc3ccccc3c2)c(C)o1
Reply: 0.26

Query: Same thing, different compound: Cc1cc(C(=O)OC(C)C(=O)NC2CCCCC2C)c(C)o1 (stereo unspecified)
Reply: 0.74

* * *

Provide the recorded solubility kinetic for the entries that follow.
# measurementParameters: buffer; pH 7.4; 200.0 µM

Query: Value lookup for solubility kinetic; key = Cc1cccc(Nc2ccncc2S(=O)(=O)NC(=O)NC(C)C)c1
Reply: > 52.3 µg/mL

Query: Same thing, different compound: Cl.O=[N+]([O-])c1ccccc1OCC(O)CNC1CCCC1 (stereo not given)
Reply: 46.2 µg/mL

Query: Same thing, different compound: COc1ccc(NC2=C(NC(C)=O)C(=O)c3ccccc3C2=O)cc1
Reply: 49.5 µg/mL

Query: Same thing, different compound: CCc1ccc(C(N)=S)cc1
Reply: > 24.8 µg/mL

Query: Same thing, different compound: CC(C)(C)C1CCc2c(sc3nc(SCC(=O)O)nc(N)c23)C1 (stereo not given)
Reply: 39.4 µg/mL

Query: Same thing, different compound: CN(Cc1ccccc1)C(=O)c1cc2cc(F)ccc2[nH]1
Reply: 1 µg/mL

Query: Same thing, different compound: CC(C)CC1C2C(=O)N(c3ccccc3)C(=O)C2ON1c1ccccc1 (stereo not given)
Reply: 27.7 µg/mL

Query: Same thing, different compound: COc1ccc(C2c3ccc(O)cc3Oc3ncn(CCCO)c(=N)c32)cc1 (stereo not given)
Reply: > 56.9 µg/mL

Query: Same thing, different compound: O=C(OCc1ccccc1)c1cccnc1Cl
Reply: 32.5 µg/mL

Query: Same thing, different compound: CCN1CCN(C(=S)NC(=O)c2cccc(Br)c2)CC1
Reply: > 53.4 µg/mL

Query: Same thing, different compound: COc1ccc(CN2C(=O)C(C)=C(C)C2OC)cc1 (stereo not given)
Reply: > 39.2 µg/mL

Query: Same thing, different compound: CN(CC1COc2ccccc2O1)C(=O)CSc1ncccn1 (stereo not given)
Reply: > 49.7 µg/mL

Query: Same thing, different compound: Cc1ccc(C)c(NC(=O)C2CC(=O)N(C3CCCCC3)C2)c1 (stereo not given)
Reply: 41.5 µg/mL

Query: Same thing, different compound: CC(C(=O)OCC(=O)c1ccccc1)N1C(=O)c2ccccc2C1=O (stereo not given)
Reply: 40.4 µg/mL

Query: Same thing, different compound: O=C(O)/C=C/c1cccc(NC(=O)Nc2ccc([N+](=O)[O-])cc2)c1
Reply: > 49.1 µg/mL

Query: Same thing, different compound: CNC(=O)c1ccccc1Sc1cccc2cccc(C(=O)O)c12
Reply: > 50.6 µg/mL

Query: Same thing, different compound: CCCOc1ccc(CNC(=S)Nc2ccccc2)cc1Cl
Reply: 1.9 µg/mL

Query: Same thing, different compound: CCC(=O)Nc1ccc(C(=O)COC(=O)Cc2ccsc2)cc1
Reply: 15.9 µg/mL

Query: Same thing, different compound: C=CCc1ccccc1OCC(O)CN1CCOCC1 (stereo not given)
Reply: > 41.6 µg/mL

Query: Same thing, different compound: CCC(=O)NC(=S)Nc1ccc(S(=O)(=O)NC2CCCCC2)cc1
Reply: 0.4 µg/mL

Query: Same thing, different compound: O=C(Nc1cccc(-c2cn3cccnc3n2)c1)Nc1ccccc1F
Reply: 1.7 µg/mL

Query: Same thing, different compound: O=C1CN(C(=O)CSc2ccccn2)c2ccccc2N1
Reply: > 44.9 µg/mL

Query: Same thing, different compound: Cc1nc(SCC(=O)NCC2CCCO2)nc(C)c1C (stereo not given)
Reply: > 44.3 µg/mL

Query: Same thing, different compound: Cl.NCCSSCCN
Reply: 31.6 µg/mL

Query: Same thing, different compound: Cl.c1cncc(CNC2CCCC2)c1
Reply: > 37.4 µg/mL

* * *

Provide the recorded solubility kinetic for the entries that follow.
# measurementParameters: buffer; pH 7.4; 200.0 µM
Respond numerically; units are µg/mL and should not be typed.

Query: Value lookup for solubility kinetic; key = COc1ccc(-c2cc(C(=O)N3CCCC3)no2)cc1
Reply: 30.4

Query: Same thing, different compound: COc1cc(OC)cc(C(=O)NCCCCNC(=O)c2cc(OC)cc(OC)c2)c1
Reply: 1.1

Query: Same thing, different compound: COc1ccc(C(=O)NC(=O)COC(=O)c2ccc(C)o2)cc1
Reply: 7

Query: Same thing, different compound: Cc1ccc(NC2CC(=O)N(c3cccc([N+](=O)[O-])c3)C2=O)cc1 (stereo unspecified)
Reply: 39

Query: Same thing, different compound: Cc1cc(C)cc(NC(=O)CCOc2ccccc2)c1
Reply: 4.1

Query: Same thing, different compound: NC1=NC(c2ccc(Cl)cc2)C(C(=O)c2ccccc2)N1 (stereo unspecified)
Reply: 4.9

* * *

# measurementParameters: buffer; pH 7.4; 200.0 µM
measuredQuantity: solubility kinetic (µg/mL)
Respond numerically; units are µg/mL and should not be typed.

Query: Value lookup for solubility kinetic; key = COc1ccccc1-n1c(SCC(=O)NCc2ccc3c(c2)OCO3)nc2cc([N+](=O)[O-])ccc21
Reply: 3.1

Query: Same thing, different molecule: COC(=O)c1[nH]c2cc(OC)ccc2c1NC(=O)c1c(F)cccc1F
Reply: 4.9

Query: Same thing, different molecule: CC(=O)C(C(C)=O)C(c1ccccc1)c1nc2ccccc2[nH]c1=O (stereo unspecified)
Reply: 0.9

Query: Same thing, different molecule: Cc1c(Cl)cccc1NC(=S)NC(=O)c1cncc(Br)c1
Reply: 5.1

Query: Same thing, different molecule: O=C(NCCC1=CCCCC1)c1c(O)nc2ccccn2c1=O
Reply: 8.7

* * *

# measurementParameters: buffer; pH 7.4; 200.0 µM
Everything with solubility kinetic lower than 20 µg/mL is condition not met; everything else, including exactly 20 µg/mL, is condition met.

Query: # bool: solubility kinetic of CCCCN(C(=O)c1c(C)noc1C)c1c(N)n(CCC)c(=O)[nH]c1=O >= 20 µg/mL
Reply: condition not met

Query: Same thing, different molecule: CC(C)(C)c1ccc(C(=O)C2CCCN(C3CCC3)C2)cc1 (stereo not drawn)
Reply: condition met

Query: Same thing, different molecule: CC1CCCCN1C(=O)c1cc2ccccc2cc1O (stereo not drawn)
Reply: condition met

Query: Same thing, different molecule: Cc1cccc(OCC2CCCN(Cc3nc(C4CC4)no3)C2)c1 (stereo not drawn)
Reply: condition not met

Query: Same thing, different molecule: CCOc1ccc2oc(C(=O)N3CC(C)OC(C)C3)c(C)c2c1 (stereo not drawn)
Reply: condition met

Query: Same thing, different molecule: Cc1ncc(CSc2ccc(Cl)cc2)c(CO)c1O
Reply: condition not met

Query: Same thing, different molecule: COC(=O)c1ccccc1Oc1cnc2ccccc2n1
Reply: condition met

Query: Same thing, different molecule: O=c1c2ccccc2cnn1Cc1n[nH]c(=S)n1-c1ccccc1F
Reply: condition met

Query: Same thing, different molecule: COc1ccccc1C(=O)N=c1sc2c(C)ccc(OC)c2n1C
Reply: condition not met

Query: Same thing, different molecule: Cc1ccc(N2C(=O)C3ON(c4ccccc4)C(CC(C)C)C3C2=O)cc1 (stereo not drawn)
Reply: condition not met

Query: Same thing, different molecule: CCN(Cc1ccncc1)Cc1ccc(OC)cc1OC.O=C(O)C(=O)O
Reply: condition met

Query: Same thing, different molecule: COC(=O)Nc1ccc2c(c1)Nc1ccccc1CC2
Reply: condition not met

Query: Same thing, different molecule: O=C(CSc1ccc2ccccc2n1)NCCCN1CCCC1=O
Reply: condition met

Query: Same thing, different molecule: O=C1Nc2ccccc2O/C1=C\c1ccccc1
Reply: condition not met

Query: Same thing, different molecule: Cc1ccc(NC(=O)c2cc3ccccc3cc2O)cc1
Reply: condition not met

Query: Same thing, different molecule: CC(=O)C1=C(O)C(=O)N(c2ccccn2)C1c1ccccc1[N+](=O)[O-] (stereo not drawn)
Reply: condition met

Query: Same thing, different molecule: CCO/C=C1/C(=O)N(c2ccc(OC)cc2)C(=O)c2ccccc21
Reply: condition met

Query: Same thing, different molecule: CCn1c(=O)c2ccccc2n(Cc2ccccc2C)c1=O
Reply: condition not met

Query: Same thing, different molecule: COc1ccc(CNC(=O)C2CC(=O)N(C3CCCC3)C2)cc1 (stereo not drawn)
Reply: condition met

Query: Same thing, different molecule: C=CCn1c(O)c(C(C)=NC2CCN(Cc3ccccc3)CC2)c(=O)[nH]c1=O
Reply: condition met

Query: Same thing, different molecule: CN(CCO)C(=O)c1c(NC(=O)c2ccccc2)sc2c1CCCC2
Reply: condition met

Query: Same thing, different molecule: Cc1ccccc1C(=O)N1CCC(C(=O)OCc2ccccn2)CC1
Reply: condition met

Query: Same thing, different molecule: O=C(CSc1ccc(-c2cccnc2)nn1)N1CCCCC1
Reply: condition met

Query: Same thing, different molecule: O=C(c1ccccc1Br)N1CCn2c1nc1ccccc12
Reply: condition met

Query: Same thing, different molecule: CCCCN1C(C)=CC(=C2C(=O)c3ccccc3C2=O)C=C1C
Reply: condition not met

Query: Same thing, different molecule: CCOC(=O)C(=CNc1ccc(N2CCOCC2)cc1)C(=O)OCC
Reply: condition met

Query: Same thing, different molecule: COc1ccc(-c2nc3ccccn3c2Cl)cc1
Reply: condition not met

Query: Same thing, different molecule: Cn1ccnc1SCC(=O)c1ccc(F)cc1
Reply: condition met

Query: Same thing, different molecule: CN1CC(C(=O)c2ccccc2)C(c2ccccc2)C1 (stereo not drawn)
Reply: condition met

Query: Same thing, different molecule: CCNC(=S)N(Cc1cc2c(C)ccc(C)c2[nH]c1=O)C1CCCC1
Reply: condition not met

Query: Same thing, different molecule: COc1ccc(C(=O)Nc2ccc(C(=O)Nc3cccnc3)cc2)cc1
Reply: condition not met

Query: Same thing, different molecule: COc1cccc(NC(=S)N2CCCN(Cc3ccc(F)cc3)C2)c1
Reply: condition met

Query: Same thing, different molecule: O=C(OCc1ccc([N+](=O)[O-])cc1)c1cc2ccccc2oc1=O
Reply: condition not met

Query: Same thing, different molecule: N#C/C(=C\c1ccc(F)c(Cl)c1)S(=O)(=O)c1ccccn1
Reply: condition met

Query: Same thing, different molecule: Cc1cc(NC(=O)COc2ccccc2C#N)no1
Reply: condition not met

Query: Same thing, different molecule: Cc1ccc(N2CC(O)Cn3c2nc2c3c(=O)[nH]c(=O)n2C)cc1 (stereo not drawn)
Reply: condition not met

Query: Same thing, different molecule: COc1ccc(CN(C)C(=O)Cc2c[nH]c3ccccc23)cc1
Reply: condition met

Query: Same thing, different molecule: CCN1CCCC1CNC(=O)CCc1nnc(CCC2CCCCC2)o1 (stereo not drawn)
Reply: condition met

Query: Same thing, different molecule: COc1cc2c(cc1OC)C(COc1ccc(C(C)C)cc1)NCC2 (stereo not drawn)
Reply: condition met

Query: Same thing, different molecule: CC[N+](CC)(CC#CCO)CC#Cc1ccccc1.[Br-]
Reply: condition met

Query: Same thing, different molecule: CC(=O)c1ccccc1NCC(=O)Nc1ccc(C)cc1
Reply: condition not met

Query: Same thing, different molecule: CCOC(=O)CNC(=O)CSc1nc(-c2cccc(C)c2)ns1
Reply: condition met

Query: Same thing, different molecule: CC1CN(Cc2ccccc2)c2nc3c(c(=O)[nH]c(=O)n3C)n2C1 (stereo not drawn)
Reply: condition met

Query: Same thing, different molecule: O=C(NCCc1nnc2ccccn12)c1cccs1
Reply: condition met

Query: Same thing, different molecule: O=C(NCc1ccco1)/C(=C/c1ccc(Cl)cc1)NC(=O)c1ccco1
Reply: condition not met

Query: Same thing, different molecule: Cc1cc(C)cc(N2CCCn3c2nc2c3c(=O)[nH]c(=O)n2C)c1
Reply: condition not met

Query: Same thing, different molecule: CCC(C)NC(=O)CSc1ncnc2sccc12 (stereo not drawn)
Reply: condition met

Query: Same thing, different molecule: Cc1ccc(S(=O)(=O)CC(=O)NC(C)c2ccccc2)cc1 (stereo not drawn)
Reply: condition met

Every entry's value here was drawn from PubChem BioAssay AID1996.
